- Target under test: T1, PSMA Fab (biotinylated (site not stated))
- T1 construct: also called Anti-PSMA Fab; 006 PSMA Fab
- Method description: clonal phage ELISA on captured PSMA Fab; competitor: PSMA antigen at saturating concentration
# phage binding ELISA signal values compiled below
Readout name: phage binding ELISA signal

| Binder | Value reported |
| --- | --- |
| SVAYCVPTWMCDGL [Phage-3516] | 0.0618 |
| TEQICKPAWMCTGL [Phage-3512] | 0.0536 |
| VDHRCVPSWMCYGL [Phage-3508] | 0.0745 |
| ADIYCKPVWMCTGF [Phage-3510] | 0.0909 |
| IEIRCKPEWMCTSF [Phage-3505] | 0.0708 |
| MVPRCEPEWMCVGF [Phage-3517] | 0.0705 |
| SVTTCIPPWMCTGF [Phage-3513] | 0.0979 |
| EYMRCEPSWMCYGF [Phage-3509] | 0.0584 |
| AEPVCVPDWMCFGF [Phage-3507] | 0.103 |
| PELACIPEWMCIGF [Phage-3515] | 0.0803 |

Source of measurements: patent US20260242478A1
